# assay system: IgG
# test details: Affinity analysis of IgG-binding peptides by surface plasmon resonance (BIAcore T200), IgG immobilized on sensor chip
# condition set: SPR, peptide 10 nM to 2 μM, HBS-EP buffer pH 7.0
# Description: Affinity analysis of the purified IgG-binding peptide was carried out according to the following method. […] The binding reaction was monitored by injecting the peptide in a concentration from 10 nM to 2 μM at a flow rate of […] for 180 sec while using an HBS-EP buffer (0.01 M HEPES, 0.15 M NaCl, 0.005% TWEEN 20, 3 mM EDTA, pH 7.0), and then the dissociation reaction was measured by washing with the buffer for 600 sec. Binding parameters were analyzed using BlAevalution T100 software.
Bridges are numbered along the chain shown (N, C = ends). Primed or numbered codes have the meaning given here. Where no end group is shown, it is not given here. The star is where a group is joined. Biotin = O=C1N[C@H]2[C@H](CS[C@H]2CCCCC(=O)*)N1; PEG4′ = not defined here
observation type: kd
Give your answer as a number; write no unit.

substance	observation type	readout number
GPDCAYH(Xaa1)GELVWCTFH (SEQ ID NO:2, wherein Xaa1 was leucine, and the C-terminus was amidated) ({Biotin-PEG4′}-GPDCAYHLGELVWCTFH-NH2; disulfide 4-14 (inferred)) [SEQ ID NO: 2, wherein Xaa1 is L]	kd	0.014

Q: Any idea what kd was measured for GPDCAYH(Xaa1)GELVWCTFH (SEQ ID NO:2, wherein Xaa1 was lysine, and the C-terminus was amidated) (GPDCAYHXGELVWCTFH; Xaa1=K; C-terminal amide; (8)..(8) Xaa is arginine, lysine, leucine, asparagine, or derivative thereof) [SEQ ID NO: 2, wherein Xaa1 is K] ?
Result: 0.195

Q: Any idea what kd was measured for GPRCAYH(Xaa1)GELVWCSFH (SEQ ID NO:4, wherein Xaa1 was arginine and the C-terminus was amidated) (GPRCAYHRGELVWCSFH-NH2; not fully specified (N-terminus, bridges); cysteine pairing not given here) [SEQ ID NO: 4, wherein Xaa1 is R] ?
Result: 0.0353

###

Quick reference: ka of the listed items.
# Test system: IgG
# test details: Affinity analysis of IgG-binding peptides by surface plasmon resonance (BIAcore T200), IgG immobilized on sensor chip
# condition set: SPR, peptide 10 nM to 2 μM, HBS-EP buffer pH 7.0
Bridges are numbered along the chain shown (N, C = ends). Primed or numbered codes have the meaning given here. Where no end group is shown, it is not given here. The star is where a group is joined. Biotin = O=C1N[C@H]2[C@H](CS[C@H]2CCCCC(=O)*)N1; PEG4′ = not defined here

Example entries and their recorded answers appear below.
substance	assay system	result
GPDCAYH(Xaa1)GELVWCTFH (SEQ ID NO:2, wherein Xaa1 was leucine, and the C-terminus was amidated) ({Biotin-PEG4′}-GPDCAYHLGELVWCTFH-NH2; disulfide 4-14 (inferred)) [SEQ ID NO: 2, wherein Xaa1 is L]	IgG	1.7E+05
GPDCAYH(Xaa1)GELVWCTFH (SEQ ID NO:2, wherein Xaa1 was lysine, and the C-terminus was amidated) (GPDCAYHXGELVWCTFH; Xaa1=K; C-terminal amide; (8)..(8) Xaa is arginine, lysine, leucine, asparagine, or derivative thereof) [SEQ ID NO: 2, wherein Xaa1 is K]	IgG	1.25E+06

# ---- query substance ----
Q: Any idea what ka was measured for GPDCAYH(Xaa1)GELVWCTFH (SEQ ID NO:2, wherein Xaa1 was arginine and the C-terminus was amidated) (GPDCAYHRGELVWCTFH-NH2; not fully specified (N-terminus, bridges); printed as GPDCAYH(Xaa1)GELVWCTFH; cysteine pairing not given here) [SEQ ID NO: 2, wherein Xaa1 is R] ?
Result: 1.57E+06

###

# assay system: IgG
# test details: Affinity analysis of IgG-binding peptides by surface plasmon resonance (BIAcore T200), IgG immobilized on sensor chip
# condition set: SPR, equilibrium value; read-out: KD (nM) Equilibrium value
Bridges are numbered along the chain shown (N, C = ends). Primed or numbered codes have the meaning given here. Where no end group is shown, it is not given here. The star is where a group is joined. Biotin = O=C1N[C@H]2[C@H](CS[C@H]2CCCCC(=O)*)N1; PEG4′ = not defined here
Threshold 60 nM: Kd strictly smaller gives t, otherwise f.

Please review the entries below; each comes with its answer.
substance	label class
DCAYH(Xaa1)GELVWCT (SEQ ID NO:1, wherein Xaa1 was arginine and the C-terminus was amidated) ({Biotin-PEG4′}-DCAYHRGELVWCT-NH2; disulfide 2-12 (inferred)) [SEQ ID NO: 1, wherein Xaa1 is R]	f
GPRCAYH(Xaa1)GELVWCSFH (SEQ ID NO:4, wherein Xaa1 was arginine and the C-terminus was amidated) (GPRCAYHRGELVWCSFH-NH2; not fully specified (N-terminus, bridges); cysteine pairing not given here) [SEQ ID NO: 4, wherein Xaa1 is R]	t
GPDCAYH(Xaa1)GELVWCTFH (SEQ ID NO:2, wherein Xaa1 was arginine and the C-terminus was amidated) (GPDCAYHRGELVWCTFH-NH2; not fully specified (N-terminus, bridges); printed as GPDCAYH(Xaa1)GELVWCTFH; cysteine pairing not given here) [SEQ ID NO: 2, wherein Xaa1 is R]	t
GPDCAYH(Xaa1)GELVWCTFH (SEQ ID NO:2, wherein Xaa1 was acetylated lysine, and the C-terminus was amidated) (GPDCAYHXGELVWCTFH; Xaa1=acetyl-lysine; C-terminal amide; (8)..(8) Xaa is arginine, lysine, leucine, asparagine, or derivative thereof) [SEQ ID NO: 2, wherein Xaa1 is K (Acetyl)]	f

Okay, next one:
Q: Input GPDCAYH(Xaa1)GELVWCTFH (SEQ ID NO:2, wherein Xaa1 was lysine, and the C-terminus was amidated) (GPDCAYHXGELVWCTFH; Xaa1=K; C-terminal amide; (8)..(8) Xaa is arginine, lysine, leucine, asparagine, or derivative thereof) [SEQ ID NO: 2, wherein Xaa1 is K] ; condition: Kd strictly below 60 nM. Does it hold?
Result: f

###

# assay system: IgG
# test details: Affinity analysis of IgG-binding peptides by surface plasmon resonance (BIAcore T200), IgG immobilized on sensor chip
# condition set: SPR, peptide 10 nM to 2 μM, HBS-EP buffer pH 7.0
Bridges are numbered along the chain shown (N, C = ends). Primed or numbered codes have the meaning given here. Where no end group is shown, it is not given here. The star is where a group is joined. Biotin = O=C1N[C@H]2[C@H](CS[C@H]2CCCCC(=O)*)N1; PEG4′ = not defined here
Quick reference: kd of the listed items.
Give your answer as a number; write no unit.

substance	kd
DCAYH(Xaa1)GELVWCT (SEQ ID NO:1, wherein Xaa1 was arginine and the C-terminus was amidated) ({Biotin-PEG4′}-DCAYHRGELVWCT-NH2; disulfide 2-12 (inferred)) [SEQ ID NO: 1, wherein Xaa1 is R]	0.0248
GPDCAYH(Xaa1)GELVWCTFH (SEQ ID NO:2, wherein Xaa1 was arginine and the C-terminus was amidated) (GPDCAYHRGELVWCTFH-NH2; not fully specified (N-terminus, bridges); printed as GPDCAYH(Xaa1)GELVWCTFH; cysteine pairing not given here) [SEQ ID NO: 2, wherein Xaa1 is R]	0.0144

Q: Recorded kd for GPDCAYH(Xaa1)GELVWCTFH (SEQ ID NO:2, wherein Xaa1 was acetylated lysine, and the C-terminus was amidated) (GPDCAYHXGELVWCTFH; Xaa1=acetyl-lysine; C-terminal amide; (8)..(8) Xaa is arginine, lysine, leucine, asparagine, or derivative thereof) [SEQ ID NO: 2, wherein Xaa1 is K (Acetyl)] with IgG, please?
Result: 0.12
